TARGET: HCV NS3/4A protease complex (Hepatitis C virus genotype 1a, UniProt P27958, C1454S/C1711G)
Construct: recombinant HCV NS3/4A protease complex (amino acids 1027 to 1711); inferred from the pET21b vector and Ni-NTA purification; made in house; host or cells: Escherichia coli BL21 (DE3)
Sequence (P27958 1027-1711 C1454S/C1711G, one chain of several): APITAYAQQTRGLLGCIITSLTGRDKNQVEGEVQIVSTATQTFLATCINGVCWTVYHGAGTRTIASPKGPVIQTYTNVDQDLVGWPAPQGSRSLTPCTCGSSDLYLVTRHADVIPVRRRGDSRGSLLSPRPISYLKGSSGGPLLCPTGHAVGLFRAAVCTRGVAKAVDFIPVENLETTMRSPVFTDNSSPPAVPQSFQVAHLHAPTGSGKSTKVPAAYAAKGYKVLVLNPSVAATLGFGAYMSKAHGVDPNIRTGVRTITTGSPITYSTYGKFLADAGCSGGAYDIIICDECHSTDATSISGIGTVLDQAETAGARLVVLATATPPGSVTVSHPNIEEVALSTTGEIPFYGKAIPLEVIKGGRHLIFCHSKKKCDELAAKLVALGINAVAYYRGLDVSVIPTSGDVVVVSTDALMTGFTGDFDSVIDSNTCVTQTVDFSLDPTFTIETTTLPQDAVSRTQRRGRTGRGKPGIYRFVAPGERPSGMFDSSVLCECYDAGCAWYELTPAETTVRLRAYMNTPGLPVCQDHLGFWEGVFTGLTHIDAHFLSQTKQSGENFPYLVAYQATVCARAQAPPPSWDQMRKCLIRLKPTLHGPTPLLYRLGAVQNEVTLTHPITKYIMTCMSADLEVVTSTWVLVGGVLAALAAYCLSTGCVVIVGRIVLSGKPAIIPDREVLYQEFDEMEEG
MEASUREMENT_PROTOCOL: FRET peptide assay to monitor HCV NS3/4A proteolytic activity
Assay type: biochemical
CONDITION_DESCRIPTION: HCV NS3/4A protease complex; strain not stated; class symbols; read-out: IC50
PROPERTY_LABEL: IC50

Examples with their reported IC50 follow.
C=C[C@@H]1C[C@]1(NC(=O)[C@@H]1C[C@]2(OC)CN1C(=O)[C@H](C(C)(C)C)NC(=O)OCCCCCCCc1cc3cc2ccc3cc1OC)C(=O)NS(=O)(=O)C1CC1 [Example 20]: 11 to 12 nM
COc1cc2ccc3cc2cc1CCCC(C)(C)CCNC(=O)N[C@@H](C(C)(C)C)C(=O)N1C[C@@]3(OC)C[C@H]1C(=O)N[C@]1(C(=O)NS(=O)(=O)C2CC2)C[C@H]1C1CC1 [Example 40]: 1 to 10 nM
C=C[C@@H]1C[C@]1(NC(=O)[C@@H]1C[C@]2(OC)CN1C(=O)[C@H](C(C)(C)C)NC(=O)OCCCCCc1cc3cc2ccc3cc1OC)C(=O)NS(=O)(=O)C1CC1 [Example 5]: 1 to 10 nM
COc1cc2ccc3cc2cc1CCCC(C)(C)CCOC(=O)N[C@@H](C(C)C)C(=O)N1C[C@@]3(OC)C[C@H]1C(=O)N[C@]1(C(=O)NS(=O)(=O)C2CC2)C[C@H]1C1CC1 [Example 38]: 1 to 10 nM

Field: next molecule
## Task Given COc1cc2ccc3cc2cc1CCCC(C)(C)CCOC(=O)N[C@@H](C(C)(C)C)C(=O)N1C[C@@]3(OC(=O)N(C)C)C[C@H]1C(=O)N[C@]1(C(=O)NS(=O)(=O)C2CC2)C[C@H]1C1CC1 [Example 27] , state its recorded IC50.
## Result 1 to 10 nM

----------
Measured IC50 by item
TARGET: HCV NS3/4A protease complex (Hepatitis C virus genotype 1a, UniProt P27958, C1454S/C1711G)
Construct: recombinant HCV NS3/4A protease complex (amino acids 1027 to 1711); inferred from the pET21b vector and Ni-NTA purification; made in house; host or cells: Escherichia coli BL21 (DE3)
MEASUREMENT_PROTOCOL: FRET peptide assay to monitor HCV NS3/4A proteolytic activity
Type: biochemical
CONDITION_DESCRIPTION: HCV NS3/4A protease complex; strain not stated; numeric values; read-out: IC50
All answers are understood in nM, so give the number only.

These solved cases illustrate the format of a correct answer.
COc1cc2ccc3cc2cc1CCCC1(CCOC(=O)N[C@@H](C(C)(C)C)C(=O)N2C[C@@]3(OC)C[C@H]2C(=O)N[C@]2(C(=O)NS(=O)(=O)C3CC3)C[C@H]2C2CC2)CC1 [Example 34]: 1
C=C[C@@H]1C[C@]1(NC(=O)[C@@H]1C[C@]2(OC)CN1C(=O)[C@H](C(C)(C)C)NC(=O)OCCCCCCc1cc3cc2ccc3cc1OC)C(=O)NS(=O)(=O)C1CC1 [Example 12]: 1

Now for the molecule whose IC50 we want.
## Task Which measured IC50 value corresponds to COc1c2cc3cc(ccc3c1Cl)[C@]1(OC)C[C@@H](C(=O)N[C@]3(C(=O)NS(=O)(=O)C4CC4)C[C@H]3C3CC3)N(C1)C(=O)[C@H](C(C)(C)C)NC(=O)OCCC(C)(C)CCC2 [Example 32] ?
## Result 25
